# Test system: Pseudomonas aeruginosa
# Assay protocol: Antibacterial activity against Pseudomonas aeruginosa by microbroth dilution assay
# Assay type: functional
Value type: MIC (µg/mL)
Express the result in µg/mL but write the number alone.

Use these answered entries as a reference point.
Compound: OC(CCl)CNc1ccc(Cl)c(Cl)c1 (stereo not given)
MIC (µg/mL): 31.3
--
Compound: OC(CCl)CNc1c(Cl)cccc1Cl (stereo not given)
MIC (µg/mL): 125
--
Compound: OC(CCl)CNc1cc(Cl)cc(Cl)c1 (stereo not given)
MIC (µg/mL): 62.5
--
Compound: OC(CCl)CNc1ccc(Cl)cc1 (stereo not given)
MIC (µg/mL): 125
--
Compound: OC(CCl)CNc1cc(Cl)ccc1Cl (stereo not given)
MIC (µg/mL): 62.5
--
Compound: OC(CCl)CNc1ccccc1Cl (stereo not given)
MIC (µg/mL): 62.5
--
Compound: OC(CCl)CNc1ccc(Cl)cc1Cl (stereo not given)
MIC (µg/mL): 62.5
--
Compound: CN(C)[C@@H]1C(O)=C(C(N)=O)C(=O)[C@@]2(O)C(O)=C3C(=O)c4c(O)cccc4[C@@](C)(O)[C@H]3C[C@@H]12 [TETRACYCLINE]
MIC (µg/mL): 7.9

What is its MIC for Pseudomonas aeruginosa? Entry: OC(CCl)CNc1cccc(Cl)c1Cl (stereo not given)
62.5

What is its MIC for Pseudomonas aeruginosa? Entry: OC(CCl)CNc1cccc(Cl)c1 (stereo not given)
250

###

# Assay protocol: Toxicity in human erythrocytes assessed as hemolysis upto 62.5 ug/mL
# Format: cell-based, Erythrocyte
# Stated conditions: read-out: Activity
Value type: hemolysis at 62.5 ug/mL (%)
Express the result in % but write the number alone.

Compound: CN(C)[C@@H]1C(O)=C(C(N)=O)C(=O)[C@@]2(O)C(O)=C3C(=O)c4c(O)cccc4[C@@](C)(O)[C@H]3C[C@@H]12 [TETRACYCLINE]
hemolysis at 62.5 ug/mL / %: 11.7

Read the next record carefully.
Request the reported hemolysis at 62.5 ug/mL associated with C[C@@H]1[C@H](O)[C@@H](C)/C=C/C=C/C=C/C=C/C=C/C=C/C=C/[C@H](O[C@@H]2O[C@H](C)[C@@H](O)[C@H](N)[C@@H]2O)C[C@@H]2O[C@](O)(C[C@@H](O)C[C@@H](O)[C@H](O)CC[C@@H](O)C[C@@H](O)CC(=O)O[C@H]1C)C[C@H](O)[C@H]2C(=O)O (stereo in doubt) [AMPHOTERICIN B]
100

###

Listed here are compounds together with their documented log10 MIC.
# System: Aspergillus fumigatus
# Assay protocol: Antifungal activity against Aspergillus fumigatus assessed as inhibition per disc by disc diffusion method
# Format: functional
Units before log transform: µg; reported quantity: MIC; transform: log10.

What is its log10 MIC for Aspergillus fumigatus? Entry: OC(CCl)CNc1ccc(Cl)cc1Cl (stereo not given)
1.37

What is its log10 MIC for Aspergillus fumigatus? Entry: OC(CCl)CNc1cccc(Cl)c1Cl (stereo not given)
1.67

What is its log10 MIC for Aspergillus fumigatus? Entry: OC(CCl)CNc1cc(Cl)ccc1Cl (stereo not given)
1.67

What is its log10 MIC for Aspergillus fumigatus? Entry: C[C@@H]1[C@H](O)[C@@H](C)/C=C/C=C/C=C/C=C/C=C/C=C/C=C/[C@H](O[C@@H]2O[C@H](C)[C@@H](O)[C@H](N)[C@@H]2O)C[C@@H]2O[C@](O)(C[C@@H](O)C[C@@H](O)[C@H](O)CC[C@@H](O)C[C@@H](O)CC(=O)O[C@H]1C)C[C@H](O)[C@H]2C(=O)O (stereo in doubt)
-0.14

What is its log10 MIC for Aspergillus fumigatus? Entry: OC(CCl)CNc1c(Cl)cccc1Cl (stereo not given)
1.67

What is its log10 MIC for Aspergillus fumigatus? Entry: OC(CCl)CNc1ccc(Cl)c(Cl)c1 (stereo not given)
1.07

###

Listed here are compounds together with their documented hemolysis at 3.91 ug/mL.
# Assay protocol: Toxicity in human erythrocytes assessed as hemolysis upto 3.91 ug/mL
# Format: cell-based, Erythrocyte
# Stated conditions: read-out: Activity
Express the result in % but write the number alone.

Compound: CN(C)[C@@H]1C(O)=C(C(N)=O)C(=O)[C@@]2(O)C(O)=C3C(=O)c4c(O)cccc4[C@@](C)(O)[C@H]3C[C@@H]12 [TETRACYCLINE]
Value type: hemolysis at 3.91 ug/mL
Result number: 4.26

Read the next record carefully.
Request the reported hemolysis at 3.91 ug/mL associated with C[C@@H]1[C@H](O)[C@@H](C)/C=C/C=C/C=C/C=C/C=C/C=C/C=C/[C@H](O[C@@H]2O[C@H](C)[C@@H](O)[C@H](N)[C@@H]2O)C[C@@H]2O[C@](O)(C[C@@H](O)C[C@@H](O)[C@H](O)CC[C@@H](O)C[C@@H](O)CC(=O)O[C@H]1C)C[C@H](O)[C@H]2C(=O)O (stereo in doubt) [AMPHOTERICIN B]
5.52

###

# System: Aspergillus fumigatus
# Assay protocol: Antifungal activity against Aspergillus fumigatus assessed as inhibition per disc by percent spore germination inhibition method
# Format: functional
Value type: MIC
Units required after the number.

Compound: OC(CCl)CNc1cccc(Cl)c1 (stereo not given)
Result: 62.5 µg/mL
//
Compound: OC(CCl)CNc1ccc(Cl)cc1 (stereo not given)
Result: 15.6 µg/mL
//
Compound: OC(CCl)CNc1c(Cl)cccc1Cl (stereo not given)
Result: 125 µg/mL
//
Compound: OC(CCl)CNc1cc(Cl)cc(Cl)c1 (stereo not given)
Result: 125 µg/mL
//
Compound: C[C@@H]1[C@H](O)[C@@H](C)/C=C/C=C/C=C/C=C/C=C/C=C/C=C/[C@H](O[C@@H]2O[C@H](C)[C@@H](O)[C@H](N)[C@@H]2O)C[C@@H]2O[C@](O)(C[C@@H](O)C[C@@H](O)[C@H](O)CC[C@@H](O)C[C@@H](O)CC(=O)O[C@H]1C)C[C@H](O)[C@H]2C(=O)O (stereo in doubt)
Result: 1.95 µg/mL
//
Compound: OC(CCl)CNc1cccc(Cl)c1Cl (stereo not given)
Result: 62.5 µg/mL
//
Compound: OC(CCl)CNc1ccccc1Cl (stereo not given)
Result: 31.2 µg/mL
//
Compound: OC(CCl)CNc1cc(Cl)ccc1Cl (stereo not given)
Result: 125 µg/mL

What is its MIC for Aspergillus fumigatus? Entry: OC(CCl)CNc1ccc(Cl)c(Cl)c1 (stereo not given)
31.2 µg/mL

What is its MIC for Aspergillus fumigatus? Entry: OC(CCl)CNc1ccc(Cl)cc1Cl (stereo not given)
62.5 µg/mL

###

Listed here are compounds together with their documented MIC.
# Test system: Streptococcus pneumoniae
# Assay protocol: Antibacterial activity against Streptococcus pneumoniae by micro-broth dilution assay
# Format: functional
Express the result in µg/mL but write the number alone.

Use these answered entries as a reference point.
Compound: OC(CCl)CNc1cc(Cl)cc(Cl)c1 (stereo not given)
Readout unit: µg/mL
Result number: 250
--
Compound: OC(CCl)CNc1cccc(Cl)c1 (stereo not given)
Readout unit: µg/mL
Result number: 500
--
Compound: CN(C)[C@@H]1C(O)=C(C(N)=O)C(=O)[C@@]2(O)C(O)=C3C(=O)c4c(O)cccc4[C@@](C)(O)[C@H]3C[C@@H]12
Readout unit: µg/mL
Result number: 7.9
--
Compound: OC(CCl)CNc1c(Cl)cccc1Cl (stereo not given)
Readout unit: µg/mL
Result number: 500
--
Compound: OC(CCl)CNc1cccc(Cl)c1Cl (stereo not given)
Readout unit: µg/mL
Result number: 62.5

Request the reported MIC associated with OC(CCl)CNc1ccc(Cl)cc1Cl (stereo not given)
125

Request the reported MIC associated with OC(CCl)CNc1ccc(Cl)cc1 (stereo not given)
500

Request the reported MIC associated with OC(CCl)CNc1ccc(Cl)c(Cl)c1 (stereo not given)
125

Request the reported MIC associated with OC(CCl)CNc1cc(Cl)ccc1Cl (stereo not given)
500

Request the reported MIC associated with OC(CCl)CNc1ccccc1Cl (stereo not given)
250

###

Listed here are compounds together with their documented MIC.
# Tested on: Aspergillus fumigatus
# Assay protocol: Antifungal activity against Aspergillus fumigatus assessed as inhibition per disc by disc diffusion method
# Assay type: functional
Express the result in µg but write the number alone.

Use these answered entries as a reference point.
Compound: OC(CCl)CNc1ccccc1Cl (centres undefined)
Study target: Aspergillus fumigatus
Result number: 11.71
//
Compound: OC(CCl)CNc1ccc(Cl)cc1 (centres undefined)
Study target: Aspergillus fumigatus
Result number: 5.85
//
Compound: OC(CCl)CNc1cc(Cl)cc(Cl)c1 (centres undefined)
Study target: Aspergillus fumigatus
Result number: 46.87

Read the next record carefully.
Request the reported MIC associated with OC(CCl)CNc1cccc(Cl)c1 (centres undefined)
23.43
